molecular target: Histone deacetylase 8 (Homo sapiens); assay: Inhibition of recombinant human N-terminal His6-SUMO-tagged C-terminal SII-tagged HDAC8 expressed in Escherichia coli (BL21) DE3 pLysS cells assessed as residual activity at 50 uM using BocLys(trifluoroacetyl)-AMC as substrate incubated for 30 mins by fluorescence assay relative to control
Values of Activity greater than or equal to 30% map to Condition met; values below map to Condition not met.

Solved entries (count: 10):
MOLECULE	ASSIGNED CATEGORY
O=C1NC(=O)/C(=C\c2ccc(OCC(=O)N3N=C(c4ccc(F)cc4F)CC3c3ccc(F)cc3)cc2)S1 (stereo not given)	Condition met
O=C1NC(=O)/C(=C\c2ccc(OCC(=O)N3N=C(c4ccccc4)CC3c3ccccc3Cl)cc2)S1 (stereo not given)	Condition not met
O=C1NC(=O)/C(=C\c2ccc(OCC(=O)N3N=C(c4ccc(F)cc4)CC3c3ccccc3Cl)cc2)S1 (stereo not given)	Condition not met
O=C1NC(=O)/C(=C\c2ccc(OCC(=O)N3N=C(c4ccc(F)cc4)CC3c3ccco3)cc2)S1 (stereo not given)	Condition met
O=C1NC(=O)/C(=C\c2ccc(OCC(=O)N3N=C(c4ccccc4)CC3c3ccc(Br)cc3)cc2)S1 (stereo not given)	Condition not met
O=C1NC(=O)/C(=C\c2ccc(OCC(=O)N3N=C(c4ccccc4)CC3c3ccc(F)cc3)cc2)S1 (stereo not given)	Condition not met
O=C1NC(=O)/C(=C\c2ccc(OCC(=O)N3N=C(c4ccc(F)cc4)CC3c3ccc(F)cc3)cc2)S1 (stereo not given)	Condition met
O=C1NC(=O)/C(=C\c2ccc(OCC(=O)N3N=C(c4ccc(F)cc4)CC3c3ccc(F)cc3F)cc2)S1 (stereo not given)	Condition met
O=C1NC(=O)/C(=C\c2ccc(OCC(=O)N3N=C(c4ccc(F)cc4)CC3c3ccc(C(F)(F)F)cc3)cc2)S1 (stereo not given)	Condition met
O=C1NC(=O)/C(=C\c2ccc(OCC(=O)N3N=C(c4ccc(F)cc4)CC3c3ccc(Cl)c(Cl)c3)cc2)S1 (stereo not given)	Condition not met

Textbook exercise: given the entry O=C1NC(=O)/C(=C\c2ccc(OCC(=O)N3N=C(c4ccccc4)CC3c3ccc(Cl)c(Cl)c3)cc2)S1 (stereo not given) , state whether its Activity is greater than or equal to 30%.
Condition not met

Textbook exercise: given the entry O=C1NC(=O)/C(=C\c2ccc(OCC(=O)N3N=C(c4ccc(F)cc4)CC3c3ccccc3)cc2)S1 (stereo not given) , state whether its Activity is greater than or equal to 30%.
Condition met

###

target: Vascular endothelial growth factor receptor 2 (Homo sapiens); assay: Inhibition of human VEGFR2 in HUVEC cells assessed as reduction in VEGFR2 phosphorylation at 10 uM incubated for 30 mins by anti-phospho VEGF Tyr 1175 antibody based assay relative to control; format: cell-based
Sequence (P35968 whole entry): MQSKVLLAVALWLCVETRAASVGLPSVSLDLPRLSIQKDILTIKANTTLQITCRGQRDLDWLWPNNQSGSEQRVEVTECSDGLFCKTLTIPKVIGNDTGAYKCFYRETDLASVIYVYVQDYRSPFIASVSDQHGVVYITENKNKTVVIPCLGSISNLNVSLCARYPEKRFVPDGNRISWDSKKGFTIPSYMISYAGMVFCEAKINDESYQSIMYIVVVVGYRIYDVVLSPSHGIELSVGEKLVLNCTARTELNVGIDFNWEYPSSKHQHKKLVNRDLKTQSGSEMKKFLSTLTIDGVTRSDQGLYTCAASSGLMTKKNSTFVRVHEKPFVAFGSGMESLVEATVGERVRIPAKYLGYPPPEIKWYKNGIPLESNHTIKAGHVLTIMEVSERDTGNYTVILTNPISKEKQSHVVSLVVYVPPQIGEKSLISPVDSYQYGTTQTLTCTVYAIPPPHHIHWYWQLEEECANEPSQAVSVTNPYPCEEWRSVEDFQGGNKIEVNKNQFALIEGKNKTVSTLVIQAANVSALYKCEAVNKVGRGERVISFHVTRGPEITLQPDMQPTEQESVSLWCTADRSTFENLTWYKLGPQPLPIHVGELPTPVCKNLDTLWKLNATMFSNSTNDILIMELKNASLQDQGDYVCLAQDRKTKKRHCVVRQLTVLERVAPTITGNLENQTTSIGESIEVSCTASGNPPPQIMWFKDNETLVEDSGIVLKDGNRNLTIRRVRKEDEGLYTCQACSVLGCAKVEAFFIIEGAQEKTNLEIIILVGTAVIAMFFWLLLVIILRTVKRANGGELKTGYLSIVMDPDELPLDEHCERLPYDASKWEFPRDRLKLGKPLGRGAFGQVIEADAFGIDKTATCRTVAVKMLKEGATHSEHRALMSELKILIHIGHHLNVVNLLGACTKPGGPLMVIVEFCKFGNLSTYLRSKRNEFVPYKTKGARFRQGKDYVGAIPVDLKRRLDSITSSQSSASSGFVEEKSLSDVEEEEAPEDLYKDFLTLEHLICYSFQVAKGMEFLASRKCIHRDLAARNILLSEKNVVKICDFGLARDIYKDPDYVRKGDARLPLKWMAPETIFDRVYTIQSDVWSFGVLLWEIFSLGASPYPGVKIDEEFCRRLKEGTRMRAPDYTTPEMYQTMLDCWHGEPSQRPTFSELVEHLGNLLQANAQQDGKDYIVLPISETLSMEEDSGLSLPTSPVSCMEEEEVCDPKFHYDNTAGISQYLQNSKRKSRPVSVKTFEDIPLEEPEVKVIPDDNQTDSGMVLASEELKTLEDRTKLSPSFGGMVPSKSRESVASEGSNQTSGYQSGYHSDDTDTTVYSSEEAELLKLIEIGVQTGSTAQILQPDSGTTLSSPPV
OBSERVED PROPERTY: inhibition (%)
# unit: % | format: bare number

COMPOUND	VALUE OBSERVED
O=C1NC(=O)/C(=C\c2ccc(OCC(=O)N3N=C(c4ccc(F)cc4)CC3c3ccco3)cc2)S1 (centres undefined)	56.7
O=C1NC(=O)/C(=C\c2ccc(OCC(=O)N3N=C(c4ccc(F)cc4)CC3c3ccc(C(F)(F)F)cc3)cc2)S1 (centres undefined)	48.7
O=C1NC(=O)/C(=C\c2ccc(OCC(=O)N3N=C(c4ccccc4)CC3c3ccccc3Cl)cc2)S1 (centres undefined)	49

// next entry
Report value only: inhibition, Vascular endothelial growth factor receptor 2 (Homo sapiens), O=C1NC(=O)/C(=C\c2ccc(OCC(=O)N3N=C(c4ccc(F)cc4)CC3c3ccc(Cl)c(Cl)c3)cc2)S1 (centres undefined)
22.4
